Tested System: T1, human NMUR1 (human, UniProt Q9HB89 1-426)
T1 sequence (looked up): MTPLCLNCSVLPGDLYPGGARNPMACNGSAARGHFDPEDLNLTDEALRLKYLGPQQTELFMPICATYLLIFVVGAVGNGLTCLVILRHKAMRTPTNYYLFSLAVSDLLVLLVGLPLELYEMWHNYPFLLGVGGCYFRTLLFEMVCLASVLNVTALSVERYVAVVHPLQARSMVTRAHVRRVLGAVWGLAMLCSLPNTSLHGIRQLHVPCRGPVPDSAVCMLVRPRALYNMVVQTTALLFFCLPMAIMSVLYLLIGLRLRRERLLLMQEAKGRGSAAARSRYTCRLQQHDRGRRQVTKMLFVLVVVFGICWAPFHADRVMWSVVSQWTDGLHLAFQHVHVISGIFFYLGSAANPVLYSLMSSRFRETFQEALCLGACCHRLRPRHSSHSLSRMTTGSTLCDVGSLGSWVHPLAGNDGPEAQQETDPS
Test Name: 125I-hNMU-25 displacement, HEK cell membranes
Non-standard residues stand in square brackets, D forms with d. No end group written: not given here. *: point of attachment. Succinimide(1-Et,3-yl) = CCN1C(=O)CC(*)C1=O; hArg = N=C(N)NCCCC[C@H](N)C(=O)O
Observable: % activity (binding) (%)

| Binder | Result |
| --- | --- |
| FRVDEEFQSPFASQSRGYF[dL]WRPRN-NH2 (not fully specified) [neuromedin U receptor agonist H] | 93 |
| FWLFRA[hArg]N-NH2 (N-terminus assumed; SMILES CC(C)C[C@H](NC(=O)[C@H](Cc1c[nH]c2ccccc12)NC(=O)[C@@H](N)Cc1ccccc1)C(=O)N[C@@H](Cc1ccccc1)C(=O)N[C@@H](CCCNC(=N)N)C(=O)N[C@@H](C)C(=O)N[C@@H](CCCCNC(=N)N)C(=O)N[C@@H](CC(N)=O)C(N)=O) [neuromedin U receptor agonist J] | 34 |
| FRVDEEFQSPFASQSRGYFWRPRN-NH2 [neuromedin U receptor agonist G] | 97 |
| YFGWRPRN-NH2 [neuromedin U receptor agonist C] | 100 |
| Ac-F[dL]WRPRN-NH2 (SMILES CC(=O)N[C@@H](Cc1ccccc1)C(=O)N[C@H](CC(C)C)C(=O)N[C@@H](Cc1c[nH]c2ccccc12)C(=O)N[C@@H](CCCNC(=N)N)C(=O)N1CCC[C@H]1C(=O)N[C@@H](CCCNC(=N)N)C(=O)N[C@@H](CC(N)=O)C(N)=O) [neuromedin U receptor agonist E] | 93 |
| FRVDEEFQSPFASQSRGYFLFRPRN-NH2 (also called hNMU-25; native hNMU) [human NMU-25] | 100 |
| Ac-C(Succinimide(1-Et,3-yl))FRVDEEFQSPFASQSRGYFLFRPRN-NH2 [NMU8] | 100 |
| FWLFRP[hArg]N-NH2 (N-terminus assumed; SMILES CC(C)C[C@H](NC(=O)[C@H](Cc1c[nH]c2ccccc12)NC(=O)[C@@H](N)Cc1ccccc1)C(=O)N[C@@H](Cc1ccccc1)C(=O)N[C@@H](CCCNC(=N)N)C(=O)N1CCC[C@H]1C(=O)N[C@@H](CCCCNC(=N)N)C(=O)N[C@@H](CC(N)=O)C(N)=O) [neuromedin U receptor agonist I] | 23 |
| YF[dL]WRPRN-NH2 (N-terminus assumed; SMILES CC(C)C[C@@H](NC(=O)[C@H](Cc1ccccc1)NC(=O)[C@@H](N)Cc1ccc(O)cc1)C(=O)N[C@@H](Cc1c[nH]c2ccccc12)C(=O)N[C@@H](CCCNC(=N)N)C(=O)N1CCC[C@H]1C(=O)N[C@@H](CCCNC(=N)N)C(=O)N[C@@H](CC(N)=O)C(N)=O) [neuromedin U receptor agonist B] | 96 |
| FALFRPRN-NH2 [neuromedin U receptor agonist N] | 38.4 |
